// molecules with IC50 on Bcl-2-like protein 1 (Homo sapiens, UniProt Q07817), multi-source literature
Sequence (Q07817 whole entry): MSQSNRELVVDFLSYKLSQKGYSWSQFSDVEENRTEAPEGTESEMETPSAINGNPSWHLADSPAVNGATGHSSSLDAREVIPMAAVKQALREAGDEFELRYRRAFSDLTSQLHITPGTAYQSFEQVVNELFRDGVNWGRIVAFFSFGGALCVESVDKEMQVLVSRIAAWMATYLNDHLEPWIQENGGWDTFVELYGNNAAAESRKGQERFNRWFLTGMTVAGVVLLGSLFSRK
Note to self: IC50 under 80 nM means Y, ties and anything higher get N.

A selection of reference data follows.
Problem: Lab log: compare recorded IC50 with 80 nM; is it strictly lower for CN(C)CC[C@H](CSc1ccccc1)Nc1ccc(S(=O)(=O)Nc2ccc(N3CCN(c4cccc(-c5c(-c6ccc(Cl)cc6)cn(C)c5C(=O)NCCCN5CCN(C)CC5)c4)CC3)cc2)cc1[N+](=O)[O-] ?
Solution: Y

Problem: And for CCCCN(CCCC)c1ncc(Cl)c(-c2ccc(C(=O)NS(=O)(=O)c3ccc4ccccc4c3)cc2C(=O)N2CCc3ccccc3C2)n1 ?
Solution: N

Problem: And for O=C(NS(=O)(=O)c1ccc(N[C@H](CCN2CCOCC2)CSc2ccccc2)c(S(=O)(=O)C(F)(F)F)c1)c1cnc(N2CCN(Cc3ccccc3-c3ccc(Cl)cc3)CC2)nc1 ?
Solution: Y

Problem: And for CC(Oc1ccc(S(=O)(=O)NC(=O)c2ccc(N3CCN(CC4=C(c5ccc(C(F)(F)F)cc5)CC(C)(C)CC4)CC3)cc2Oc2cnc3[nH]ccc3c2)cc1[N+](=O)[O-])C1CCOCC1 (stereo not drawn) ?
Solution: N

Problem: And for CCCCc1c(-c2ccc(C(=O)NS(=O)(=O)CC)cc2C(=O)N2CCc3ccccc3C2)c(CO)nn1-c1ccc(Oc2cccc(Cl)c2)cc1 ?
Solution: N

***
Problem: Lab log: compare recorded IC50 with 80 nM; is it strictly lower for CN(CCO)CC[C@H](CSc1ccccc1)Nc1ccc(S(=O)(=O)NC(=O)c2ccc(N3CCC([C@@H](O)c4ccccc4-c4ccc(Cl)cc4)CC3)cc2)cc1S(=O)(=O)C(F)(F)F ?
Solution: Y

Problem: And for Cc1c(Cl)c(-c2cccc(N3CCN(c4ccc(NS(=O)(=O)c5ccc(N[C@H](CCN(C)C)CSc6ccccc6)c([N+](=O)[O-])c5)cc4)CC3)c2)c(-c2ccc(Cl)cc2)n1C ?
Solution: Y

====

// compounds with IC50 on Bcl-2-like protein 1 (Homo sapiens, UniProt Q07817), multi-source literature
I only need the number, in nM, no unit after it.

Problem: Which IC50 value belongs to CC1(C)CCC(c2ccc(Cl)cc2)=C(CNC2(Cn3cnc4cc(C(=O)NS(=O)(=O)c5ccc(N[C@H](CCN6CCOCC6)CSc6ccccc6)c(S(=O)(=O)C(F)(F)F)c5)ccc43)CC2)C1 ?
Solution: 29.3

Problem: And for CCCCc1c(-c2ccc(C(=O)NS(=O)(=O)c3ccc4ccccc4c3)cc2C(=O)N2CCc3ccccc3C2)c(CO)nn1-c1cccc(CO)c1 ?
Solution: 15

Problem: And for O=C(NS(=O)(=O)c1ccc(N[C@H](CCN2CCOCC2)CSc2ccccc2)c(S(=O)(=O)C(F)(F)F)c1)c1ccc(N2CCN(Cc3ccccc3-c3ncc(Cl)cn3)CC2)cc1 ?
Solution: 21

Problem: And for CN(C)CC[C@H](CSc1ccccc1)Nc1ccc(S(=O)(=O)Nc2ccc(N3CCN(c4cccc(-c5c(C(=O)NS(C)(=O)=O)cnn5-c5ccc(Cl)cc5)c4)CC3)cc2)cc1[N+](=O)[O-] ?
Solution: 5

====

// compounds with pIC50 on UniProtKB Q07817, multi-source literature
pIC50: −log10 of the molar value.

Sample records with pIC50:
Problem: Form field: pIC50 recorded for CN(C)C(=O)COc1cccc(-c2ccc(Cl)cc2)c1CN1CCN(c2ccc(C(=O)NS(=O)(=O)c3ccc(N[C@H](CCN4CCOCC4)CSc4ccccc4)c(S(=O)(=O)C(F)(F)F)c3)cc2)CC1 with UniProtKB Q07817 (enter value)
Solution: > 8.00

Problem: And for Cn1ncc(CN2CCN(c3ccc(C(=O)NS(=O)(=O)c4ccc(N[C@H](CCN5CCOCC5)CSc5ccccc5)c(S(=O)(=O)C(F)(F)F)c4)cc3)CC2)c1-c1ccc(Cl)cc1 ?
Solution: > 8.00

Problem: And for CN1CCN(S(=O)(=O)NC(=O)c2ccc(N3CCN(CC4=C(c5ccc(Cl)cc5)CCC(C)(C)C4)CC3)cc2)CC1 ?
Solution: < 6.00

Query compound follows.
Problem: Form field: pIC50 recorded for C[C@H]1[C@@H](OCCN2CCN(c3ccc(C(=O)NS(=O)(=O)c4ccc(NCC5CCOCC5)c([N+](=O)[O-])c4)c(Oc4cnc5[nH]ccc5c4)c3)CC2)O[C@@H]2O[C@]3(C)O[C@]24[C@H]1CC[C@@H](C)[C@@H]4C[C@H]3O with UniProtKB Q07817 (enter value)
Solution: < 6.00

====

// compounds with IC50 on Bcl-2-like protein 1 (Homo sapiens, UniProt Q07817), multi-source literature
I only need the number, in nM, no unit after it.

Problem: Which IC50 value belongs to CC1(C)CCC(c2ccc(Cl)cc2)=C(CN2CCN(c3ccc(C(=O)NS(=O)(=O)c4ccc(NC5(CN6CCOCC6)CC5)c(S(=O)(=O)C(F)(F)F)c4)cc3)CC2)C1 ?
Solution: 55.3

Problem: And for CCCCCCNC1=C2C(=NC1=O)c1cccc3c(N4CCSCC4)ccc2c13 ?
Solution: 85

Problem: And for CN(C)CC[C@H](CSc1ccccc1)Nc1ccc(S(=O)(=O)NC(=O)c2ccc(N3CCN(Cc4cccc(-c5ccccc5)c4)CC3)cc2)cc1[N+](=O)[O-] ?
Solution: 11

Problem: And for CCn1c(C)c(C(=O)O)c(-c2cccc(N3CCN(c4ccc(NS(=O)(=O)c5ccc(N[C@H](CCN(C)C)CSc6ccccc6)c([N+](=O)[O-])c5)cc4)CC3)c2)c1-c1ccc(Cl)cc1 ?
Solution: 6.6

Problem: And for CCCN(CCC)c1nccc(-c2ccc(C(=O)NS(=O)(=O)c3ccc4ccccc4c3)cc2C(=O)N2CCc3ccccc3C2)n1 ?
Solution: 250

Problem: And for CC1(C)CCN(c2ccc(C(=O)NS(=O)(=O)c3ccc(NCCSc4ccccc4)c([N+](=O)[O-])c3)cc2)CC1 ?
Solution: 78.8

Problem: And for CCN1CCC(COc2ccc(S(=O)(=O)NC(=O)c3ccc(N4CCN(CC5=C(c6ccc(C(F)(F)F)cc6)CC(C)(C)CC5)CC4)cc3Oc3cnc4[nH]ccc4c3)cc2[N+](=O)[O-])CC1 ?
Solution: 34.6

====

// compounds with IC50 on Bcl-2-like protein 1 (Homo sapiens), multi-source literature

Sample records with IC50:
Problem: Which IC50 value belongs to CC1(C)CCC(c2ccc(Cl)cc2)=C(CNC2(Cn3cnc4ccc(C(=O)NS(=O)(=O)c5ccc(N[C@H](CCN6CCOCC6)CSc6ccccc6)c(S(=O)(=O)C(F)(F)F)c5)cc43)CC2)C1 ?
Solution: > 1000 nM

Problem: And for CN(C)C(=O)COc1ccc(-c2ccc(Cl)cc2)c(CN2CCN(c3ccc(C(=O)NS(=O)(=O)c4ccc(N[C@H](CCN5CCOCC5)CSc5ccccc5)c(S(=O)(=O)C(F)(F)F)c4)cc3)CC2)c1 ?
Solution: < 10 nM

Problem: And for NCC1(Cc2ccccc2-c2ccc(Cl)cc2)CCN(c2ccc(C(=O)NS(=O)(=O)c3ccc(N[C@H](CCN4CCOCC4)CSc4ccccc4)c(S(=O)(=O)C(F)(F)F)c3)cc2)CC1 ?
Solution: < 10 nM

Problem: And for C[C@H]1[C@@H](CCN2CCN(c3ccc(C(=O)NS(=O)(=O)c4ccc(NCC5CCOCC5)c([N+](=O)[O-])c4)c(Oc4cnc5[nH]ccc5c4)c3)CC2)O[C@@H]2O[C@@]3(C)CC[C@H]4[C@H](C)CC[C@@H]1[C@@]24O3 ?
Solution: > 1000 nM

Problem: And for CC1(C)CCC(CN2CCN(c3ccc(C(=O)NS(=O)(=O)c4ccc(NCC5CCOCC5)c([N+](=O)[O-])c4)c(Oc4cnc5[nH]ccc5c4)c3)CC2)=C(c2ccc(C(F)(F)F)c(Cl)c2)C1 ?
Solution: > 2000 nM

***
Problem: Which IC50 value belongs to CC1(C)CCC(CN2CCN(c3ccc(C(=O)NS(=O)(=O)c4ccc(OC5CCOCC5)c([N+](=O)[O-])c4)c(Oc4cnc5[nH]ccc5c4)c3)CC2)=C(c2ccc(C(F)(F)F)cc2)C1 ?
Solution: > 2000 nM

Problem: And for CCCCN(CCCC)C(=O)c1nn(-c2ccc(NS(=O)(=O)c3cc(Cl)cc(Cl)c3O)cc2C(=O)N2CCc3ccccc3C2)c(C)c1Cl ?
Solution: 4300 nM

Problem: And for CCCCN(CCCC)C(=O)c1nn(-c2ccc(C(=O)NS(=O)(=O)c3ccc4ccccc4c3)cc2C(=O)N2Cc3ccccc3C[C@H]2CN2CCOCC2)c(C)c1Cl ?
Solution: 16 nM

Problem: And for O=C(NS(=O)(=O)c1ccc(N[C@H](CCN2CCOCC2)CSc2ccccc2)c(S(=O)(=O)C(F)(F)F)c1)c1ccc(N2CCP(=O)(Cc3ccccc3-c3ccc(Cl)cc3)CC2)cc1 ?
Solution: 18 nM
